# test_system: EP2 subtype of the human PGE2 receptor (Homo sapiens, UniProt P43116)
# Sequence (P43116 whole entry): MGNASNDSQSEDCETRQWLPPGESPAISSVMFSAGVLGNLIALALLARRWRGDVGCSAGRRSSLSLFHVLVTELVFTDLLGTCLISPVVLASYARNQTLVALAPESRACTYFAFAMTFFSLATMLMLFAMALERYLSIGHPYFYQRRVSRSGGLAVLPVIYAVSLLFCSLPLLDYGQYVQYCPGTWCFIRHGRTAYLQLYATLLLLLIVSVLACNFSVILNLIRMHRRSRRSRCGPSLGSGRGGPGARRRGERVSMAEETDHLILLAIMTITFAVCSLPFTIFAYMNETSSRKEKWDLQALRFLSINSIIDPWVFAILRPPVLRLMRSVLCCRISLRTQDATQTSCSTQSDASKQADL
# assay_info: cAMP antagonism test (test for antagonism in the presence of PGE2)
# experimental_context: in presence of agonist PGE2
value_kind: pIC50
In plain terms, pIC50 is the concentration in mol/L turned into minus its base-10 logarithm.

Some entries whose results are on file:
1) S=C(Nc1ccccc1Br)NC1CCN(c2ccnc3cc(Cl)ccc23)CC1
5.42
2) CSc1ccccc1NC(=S)NC1CCN(c2ccnc3cc(Cl)ccc23)CC1
5.47

Ask: For the molecule CSc1ccc(NC(=S)NC2CCN(c3ccnc4cc(Cl)ccc34)CC2)cc1 , what pIC50 is on record?
Reply: 5.57
